# reported pIC50; entries follow
target: yeast HSP90 (Saccharomyces cerevisiae); construct: made in house; host or cells: E. coli; assay: Malachite green HSP90 ATPase assay; type: biochemical; details: activity class; read-out: Hsp90 IC50
Sequence (P02829 whole entry, looked up): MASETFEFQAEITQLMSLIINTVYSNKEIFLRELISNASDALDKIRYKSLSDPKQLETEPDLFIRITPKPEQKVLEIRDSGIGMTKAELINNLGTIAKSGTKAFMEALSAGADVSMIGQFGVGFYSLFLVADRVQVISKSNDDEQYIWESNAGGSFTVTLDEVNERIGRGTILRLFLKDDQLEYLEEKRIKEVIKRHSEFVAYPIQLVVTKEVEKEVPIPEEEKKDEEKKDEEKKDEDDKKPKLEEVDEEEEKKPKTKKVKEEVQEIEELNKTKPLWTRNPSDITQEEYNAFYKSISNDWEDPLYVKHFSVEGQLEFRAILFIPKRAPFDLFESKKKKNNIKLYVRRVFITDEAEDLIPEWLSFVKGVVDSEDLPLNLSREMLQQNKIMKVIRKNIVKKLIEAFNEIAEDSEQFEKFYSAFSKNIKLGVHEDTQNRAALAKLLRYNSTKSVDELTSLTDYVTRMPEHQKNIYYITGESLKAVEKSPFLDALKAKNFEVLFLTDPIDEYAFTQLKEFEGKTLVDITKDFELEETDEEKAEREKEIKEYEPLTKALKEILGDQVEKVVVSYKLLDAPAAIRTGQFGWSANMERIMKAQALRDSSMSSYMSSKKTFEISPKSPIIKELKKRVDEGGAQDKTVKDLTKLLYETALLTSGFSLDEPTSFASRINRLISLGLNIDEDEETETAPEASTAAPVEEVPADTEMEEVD
pIC50: −log10 of the molar value.

{"columns": ["structure-smiles-string", "measured-target", "pIC50"],
 "data": [
  ["CCc1cc(-c2n[nH]c(C)c2-c2nc3ccccc3n2C)c(O)cc1O", "yeast HSP90 (Saccharomyces cerevisiae)", "4.00 to 5.00"],
  ["O=C(O)COc1ccc(-c2n[nH]cc2-c2ccc3c(c2)OCCO3)c(O)c1", "yeast HSP90 (Saccharomyces cerevisiae)", "< 5.00"],
  ["Cc1[nH]nc(-c2ccc3c(c2O)OCO3)c1-c1ccc2c(c1)OCCO2", "yeast HSP90 (Saccharomyces cerevisiae)", "< 5.00"],
  ["CCc1cc(-c2n[nH]c(C)c2-c2nc3ccccc3s2)c(O)cc1O", "yeast HSP90 (Saccharomyces cerevisiae)", "< 5.00"],
  ["Cc1[nH]nc(-c2cccc(C#N)c2)c1-c1ccc2c(c1)OCCO2", "yeast HSP90 (Saccharomyces cerevisiae)", "< 5.00"],
  ["COc1ccc(-c2n[nH]cc2-c2ccc3c(c2)OCCO3)c(O)c1", "yeast HSP90 (Saccharomyces cerevisiae)", "< 5.00"],
  ["Oc1cc(O)c(-c2n[nH]cc2-c2ccccc2)cc1Cl", "yeast HSP90 (Saccharomyces cerevisiae)", "> 5.00"],
  ["COc1ccc(-c2c(-c3cc(Cl)c(F)cc3O)n[nH]c2C)cc1", "yeast HSP90 (Saccharomyces cerevisiae)", "< 5.00"]
]}
